- test summary: yeast display, Sf9 membrane polyspecificity reagent, FACS + sequencing; frameworks hold sequencing errors
readout type: polyreactivity (PSR sort gate)

INSERT INTO assay_data (seq, result) VALUES
  ('QVQLVESGGGLVQAGGSLRLSCAASGRTFVYNAMGWYRQAPGKERELVAAISSSGGSTRYADSVKGRFTISRDNAKNTVYLQMNSLKPEDTAVYYCNRLRYSNRYDSWGQGTQVTVSS', 'high polyreactivity'),
  ('QVQLVESGGGLVQAGGSLRLSCAASGLIFPYYAMGWYRQAPGKERELVATITRSGGNTYYADSVKGRFTISRDNAKNTVYLQMNSLKPEDTAVYYCATRYAGYRSYGYWGQGTQVTVLS', 'high polyreactivity'),
  ('QVQLVESGGGLVQAGGSLRLSCAASGSIFRVYTMGWYRQAPGKERELVAAISRSGGRTYYADSVKGRFTISRDNAKNTVYLQMNSLKPEDTAVYYCNAQYGGQYGYGYWGQGTQVTVSS', 'high polyreactivity');
